// data source = patent US7297704B2

Target Under Test: UniProt:P08908
Experiment Summary: cAMP RIA in human 5-HT1A receptor cell line
Condition Notes: superscript b; reversal of agonist activity, CHO cells; read-out: c-AMP, (IC50)^b
The following compounds are listed with their measured pIC50 values.
Friendly reminder that pIC50 comes from taking -log10 of the concentration in mol/L.

Consider the reported pIC50 for these compounds:
Compound	Parameter	Readout Number
Cc1ccc2c3c(ccc2n1)OC[C@H](CNCC1CCc2c(c4c(F)cccc4n2C)C1)O3 (stereo partly shown) [Example 12]	pIC50	7.57
Cc1ccc2c3c(ccc2n1)OC[C@H](CNCC1CCc2c(c4cc(F)ccc4n2C)C1)O3 (mixture of isomers) [Example 6]	pIC50	6.27
Cc1ccc2c3c(ccc2n1)OC[C@H](CNCC1CCc2sc4ccccc4c2C1)O3 (single isomer, unassigned) [32 diastereomer 2]	pIC50	7.75

Please turn your attention to the following entry.
Look up pIC50: Cc1ccc2c3c(ccc2n1)OC[C@H](CNC[C@H]1CCc2c(c4cc(F)ccc4n2C)C1)O3 [Example 7] 7.11

====

The compounds listed here are annotated with their pEC50.
Target Under Test: Human 5-HT1A Receptor (Homo sapiens, UniProt P08908)
Sequence (P08908 whole entry): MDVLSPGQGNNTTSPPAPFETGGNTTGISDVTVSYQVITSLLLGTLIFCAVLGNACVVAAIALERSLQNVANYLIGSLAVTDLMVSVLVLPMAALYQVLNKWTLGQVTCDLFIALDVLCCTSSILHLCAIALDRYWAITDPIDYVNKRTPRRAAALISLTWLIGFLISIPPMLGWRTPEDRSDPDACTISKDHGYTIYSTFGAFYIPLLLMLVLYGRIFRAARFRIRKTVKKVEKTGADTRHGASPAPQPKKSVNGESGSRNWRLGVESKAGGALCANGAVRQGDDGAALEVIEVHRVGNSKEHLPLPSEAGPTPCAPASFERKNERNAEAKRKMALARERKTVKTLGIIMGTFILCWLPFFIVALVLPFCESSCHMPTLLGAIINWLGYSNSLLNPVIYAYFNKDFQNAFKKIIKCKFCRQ
Experiment Summary: cAMP RIA in human 5-HT1A receptor cell line
Condition Notes: superscript a; forskolin stimulated cAMP, CHO cells; read-out: c-AMP, (EC50)^a
Where a name gives a salt, the structure may show the parent alone.
Scale for pEC50: -log10 of concentration given in mol/L; no unit attached.

Compound	Target Under Test	Readout Number
Cc1ccc2c3c(ccc2n1)OC[C@H](CN(CC1CC1)C[C@@H]1CCc2[nH]c4ccc(F)cc4c2C1)O3 [Example 55, dihydrochloride dihydrate]	Human 5-HT1A Receptor (Homo sapiens, UniProt P08908)	6.68
Cc1ccc2c3c(ccc2n1)OC[C@H](CN(CC1CCc2[nH]c4ccc(F)cc4c2C1)C1CCC1)O3 (stereo partly drawn) [Example 53, dihydrochloride dihydrate]	Human 5-HT1A Receptor (Homo sapiens, UniProt P08908)	6.90

Which pEC50 is reported for this compound? Cc1ccc2c3c(ccc2n1)OC[C@H](CN(CC1CCc2c(c4cc(F)ccc4n2C)C1)C1CCCC1)O3 (stereo partly drawn) [Example 66, monohydrochloride monohydrate] 6.79

====

Items are presented alongside their recorded melting point.

I am curious: what melting point value has been reported for Cc1ccc2c3c(ccc2n1)OC[C@H](CNC[C@H]1CCc2[nH]c4ccc(C#N)cc4c2C1)O3.Cl.Cl ? 236 to 241 °C

For Cc1ccc2c3c(ccc2n1)OC[C@H](CN(C[C@@H]1CCc2[nH]c4ccc(F)cc4c2C1)C1CCCCC1)O3.Cl.O (hydrate or solvate) , what is its reported melting point? 207 to 218 °C

Endpoint output: melting point of Cc1ccc2c3c(ccc2n1)OC[C@H](CN(C[C@@H]1CCc2[nH]c4ccc(F)cc4c2C1)C(C)C)O3.Cl.O (hydrate or solvate) . Value? 230 to 243 °C

Item CCC(C)N(C[C@H]1CCc2[nH]c3ccc(F)cc3c2C1)C[C@H]1COc2ccc3nc(C)ccc3c2O1.Cl.O (stereo partly drawn) (hydrate or solvate) has what recorded melting point? 246 to 257 °C

Using the record for Cc1ccc2c3c(ccc2n1)OCC(CNCC1CCc2[nH]c4ccc(Cl)cc4c2C1)O3 (stereo not drawn) , report its melting point. 235 to 237 °C

Record request: melting point value, item CCC(C)N(C[C@@H]1CCc2[nH]c3ccc(F)cc3c2C1)C[C@H]1COc2ccc3nc(C)ccc3c2O1.Cl.O (stereo partly drawn) (hydrate or solvate) 235 to 256 °C
